So I've got a bunch of molecules here, and I need their log10 of EC50 values.
# Assayed system: Glucose-dependent insulinotropic receptor (Homo sapiens, UniProt Q8TDV5)
# Sequence (Q8TDV5 whole entry): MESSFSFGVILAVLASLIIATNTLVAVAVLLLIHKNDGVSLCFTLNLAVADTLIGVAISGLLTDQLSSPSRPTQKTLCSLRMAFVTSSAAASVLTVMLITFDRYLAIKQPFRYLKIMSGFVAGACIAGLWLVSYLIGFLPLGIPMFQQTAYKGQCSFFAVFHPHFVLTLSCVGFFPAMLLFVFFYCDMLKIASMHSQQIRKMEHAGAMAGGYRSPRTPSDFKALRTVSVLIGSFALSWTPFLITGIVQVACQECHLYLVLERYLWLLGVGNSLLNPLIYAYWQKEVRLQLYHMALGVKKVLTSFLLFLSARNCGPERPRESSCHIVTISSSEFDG
# Assay text: Agonist activity at human GPR119 overexpressed in HEK293S cells assessed as change in cAMP level after 45 mins by HTRF assay
Please note: log10 values; quantity EC50; unit nM.

Some molecules with known log10 of EC50 results, for comparison:
{"columns": ["Molecule", "Assayed system", "Property label", "Val"],
 "data": [
  ["N#Cc1cnccc1COc1cnc(N2CCN(C(=O)OC3CC(F)(F)C3(F)F)CC2)nc1 (stereo not given)", "Glucose-dependent insulinotropic receptor (Homo sapiens, UniProt Q8TDV5)", "log10 of EC50", 1.30],
  ["C[C@@H]1CN(C(=O)OC2CC(F)(F)C2(F)F)CCN1c1ncc(OCc2ccncc2C#N)cn1 (stereo not given in full)", "Glucose-dependent insulinotropic receptor (Homo sapiens, UniProt Q8TDV5)", "log10 of EC50", 0.78],
  ["CC(C)(C)OC(=O)N1CC2CCC(C1)N2c1ncc(OCc2ccc(S(C)(=O)=O)cc2)cn1", "Glucose-dependent insulinotropic receptor (Homo sapiens, UniProt Q8TDV5)", "log10 of EC50", 1.90],
  ["N#Cc1cnccc1COc1cnc(N2CC3CCC(C2)N3C(=O)OC2CC(F)(F)C2(F)F)nc1 (stereo not given)", "Glucose-dependent insulinotropic receptor (Homo sapiens, UniProt Q8TDV5)", "log10 of EC50", 0.85]
]}

Kindly review the next molecule as well.
Just so you know, measured log10 of EC50 for "N#Cc1cnccc1COc1cnc(N2CCN(C(=O)OCC(F)(F)F)CC2)nc1" came out at 1.67

----------
# Assay text: Volume of distribution at steady state in rat at 2 mg/kg, iv and 5 mg/kg, po
# Format: ADME, organism-based
# Experimental parameters: in vivo, read-out: Vdss
Property label: Vd (L/kg)
One number for each entry, in L/kg.

Some compounds with known Vd results, for comparison:
{"columns": ["Chemical structure", "Value units", "Vd"],
 "data": [
  ["N#Cc1cnccc1COc1cnc(N2CC3CCC(C2)N3C(=O)OCC(F)(F)F)nc1", "L/kg", 1],
  ["C[C@@H]1CN(C(=O)OCC(F)(F)F)CCN1c1ncc(OCc2ccncc2C#N)cn1", "L/kg", 1.1]
]}

Kindly note the recorded Vd for "N#Cc1cnccc1COc1cnc(N2CCN(C(=O)OCC(F)(F)F)CC2)nc1" , which is 5.3

----------
# Assay text: 1-octanol-aqueous phosphate buffer distribution coefficient, log D of the compound at pH 7.4 after 30 mins by shake-flask method
# Type: physicochemical
Property label: logD at 0.5 h

Previously resolved entries follow.
{"columns": ["Chemical structure", "Property label", "Val"],
 "data": [
  ["C[C@@H]1CN(C(=O)OCC(F)(F)F)CCN1c1ncc(OCc2ccncc2C#N)cn1", "logD at 0.5 h", 3],
  ["N#Cc1cnccc1COc1cnc(N2CCN(C(=O)OCC(F)(F)F)CC2)nc1", "logD at 0.5 h", 3]
]}

For the next question, use this compound.
Memo: "N#Cc1cnccc1COc1cnc(N2CC3CCC(C2)N3C(=O)OCC(F)(F)F)nc1" , reported logD at 0.5 h: 3

Reference source: ChEMBL document CHEMBL2380211
